Assay: Pharmacokinetics in rats after SC and IV administration
Details: rat, in vivo, sc, 10 mg/kg
Where a SMILES comes first, the peptide text is derived from it. [ ]: non-standard residue; d: D form. Arg(Me) = CNC(=N)NCCC[C@H](N)C(=O)O; Hyp = O=C(O)[C@@H]1C[C@@H](O)CN1; azaGly = NNC(=O)O
value-kind: AUC(0-t) (µg·h/mL)
Just the number in µg·h/mL, nothing appended.

IN: Fill in reported AUC(0-t) for this entry: CNC(=N)NCCC[C@H](NC(=O)[C@H](CC(C)C)NC(=O)NNC(=O)[C@H](Cc1ccccc1)NC(=O)[C@@H](NC(=O)[C@H](CC(N)=O)NC(=O)[C@@H]1C[C@@H](O)CN1C(=O)[C@@H](Cc1ccc(O)cc1)NC(C)=O)[C@@H](C)O)C(=O)N[C@@H](Cc1c[nH]c2ccccc12)C(N)=O [Compound 1] (Ac-[dY][Hyp]NTF[azaGly]L[Arg(Me)]W-NH2)
OUT: 0.309
